# target_system: T1, hPIV-3 hemagglutinin-neuraminidase (HN), expressed on transfected HEK293T cells (human parainfluenza virus 3 (hPIV-3), UniProt P08492 1-572)
# T1 construct: also called hPIV-3 HN; HN3
# T1 chain: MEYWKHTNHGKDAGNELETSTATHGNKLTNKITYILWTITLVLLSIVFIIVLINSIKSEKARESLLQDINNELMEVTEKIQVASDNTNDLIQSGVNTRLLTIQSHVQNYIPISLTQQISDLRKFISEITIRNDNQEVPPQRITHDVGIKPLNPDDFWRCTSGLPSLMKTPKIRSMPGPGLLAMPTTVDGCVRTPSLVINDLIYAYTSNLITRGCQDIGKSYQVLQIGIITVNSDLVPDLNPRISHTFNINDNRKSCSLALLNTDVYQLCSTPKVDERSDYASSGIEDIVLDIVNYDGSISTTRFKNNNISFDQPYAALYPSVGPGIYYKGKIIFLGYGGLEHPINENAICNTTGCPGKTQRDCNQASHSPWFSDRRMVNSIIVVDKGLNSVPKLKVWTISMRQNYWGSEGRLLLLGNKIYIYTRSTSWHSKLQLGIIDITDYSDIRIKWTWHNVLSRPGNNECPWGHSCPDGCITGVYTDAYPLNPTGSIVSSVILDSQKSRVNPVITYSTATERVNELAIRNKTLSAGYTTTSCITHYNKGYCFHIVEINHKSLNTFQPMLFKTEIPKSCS
# test_name: flow cytometry on transfected HEK293T cells, 10 µg/ml (FIG. 16A)
measured_endpoint: binding result

binder="humanized A2R3-60-60 bivalent construct version 1 (VHH, also called A2R3-h60-60) DVQLVESGGGLVQPGGSLRLSCAASGTTVSINGMGWYRQAPGKQREFVALSTTGGVTNYADSVKGRFTISRDNAKNTVYLQMNSLRPEDTAVYYCNAVASPSWGLYDDYWGQGTLVTVSSGGGGSGGGGSGGGGSEVQLVESGGGLVQPGGSLRLSCAASGTTVSINGMGWYRQAPGKQREFVALSTTGGVTNYADSVKGRFTISRDNAKNTVYLQMNSLRPEDTAVYYCNAVASPSWGLYDDYWGQGTLVTVSS" measured_endpoint="binding result" experimental_value=binds
binder="humanized A2R3-59-59 bivalent construct version 1 (VHH, also called A2R3-h59-59) DVQLVESGGGLVQPGGSLRLSCAASGSISGINGMGWYRQAPGKQRELVAAITSGGSTNYADSVKGRFTISRDNAKNTVYLQMNSLRPEDTAVYYCYVSSTPSWGLYDDYWGQGTLVTVSSGGGGSGGGGSGGGGSEVQLVESGGGLVQPGGSLRLSCAASGSISGINGMGWYRQAPGKQRELVAAITSGGSTNYADSVKGRFTISRDNAKNTVYLQMNSLRPEDTAVYYCYVSSTPSWGLYDDYWGQGTLVTVSS" measured_endpoint="binding result" experimental_value=binds
binder="bivalent VHH A2R3-59-59 (VHH, also called bivalent A2R3-59) QVQLQESGGGLVQPGGSLRLSCAASGSISGINGMGWYRQAPGKQRELVAAITSGGSTNYADSVKGRFTISRDNAKNTVDLQMNSLQPEDTAVYYCYVSSTPSWGLYDDYWGQGTQVTVSSGGGGSGGGGSGGGGSQVQLQESGGGLVQPGGSLRLSCAASGSISGINGMGWYRQAPGKQRELVAAITSGGSTNYADSVKGRFTISRDNAKNTVDLQMNSLQPEDTAVYYCYVSSTPSWGLYDDYWGQGTQVTVSS" measured_endpoint="binding result" experimental_value=binds
